Quick list: pIC50 per entry.
# EXPERIMENTAL TARGET: HIV protease (Human immunodeficiency virus type 1 group M subtype B)
# Construct: an HIV-encoded enzyme known as HIV protease
# EXPERIMENT DESCRIPTION: biochemical
# MEASUREMENT PARAMETERS: recombinant HIV protease; decapeptide substrate; HPLC assay; read-out: IC50 (concentration causing 50% inhibition of HIV protease)
Lab note: report pIC50 as minus log10 of the concentration in molar units, number only.

Some entries whose results are on file:
CCC(CC)NC(=O)CC(C(=O)NC[C@@H](O)[C@H](Cc1ccccc1)NC(=O)[C@H](CC(N)=O)NC(=O)c1ccc2ccccc2n1)C(C)C (stereo partly shown): 8.05
CCC(CC)NC(=O)C[C@@H](C(=O)NC[C@@H](O)[C@H](Cc1ccccc1)NC(=O)c1ccc(Cl)cc1)C(C)(C)C: 8.06

# input Identify the reported pIC50 for the following entry. CCC(CC)NC(=O)C[C@@H](C(=O)NC[C@@H](O)[C@H](Cc1ccccc1)NC(=O)[C@@H](NC(=O)OC(C)(C)C)[C@@H](C)C(=O)O)C(C)(C)C
# output 8.15

# input Give reported pIC50 value for CCC(CC)NC(=O)C[C@@H](C(=O)NC[C@@H](O)[C@H](Cc1ccccc1)NC(=O)c1ccccc1C)C(C)(C)C
# output 8.19

Each recorded value in this set is attributed to patent US5545640A.
